Catalogue of pEC50 readings, one per entry.
Target: human FPR1 (Homo sapiens, UniProt P21462)
Sequence (P21462 whole entry): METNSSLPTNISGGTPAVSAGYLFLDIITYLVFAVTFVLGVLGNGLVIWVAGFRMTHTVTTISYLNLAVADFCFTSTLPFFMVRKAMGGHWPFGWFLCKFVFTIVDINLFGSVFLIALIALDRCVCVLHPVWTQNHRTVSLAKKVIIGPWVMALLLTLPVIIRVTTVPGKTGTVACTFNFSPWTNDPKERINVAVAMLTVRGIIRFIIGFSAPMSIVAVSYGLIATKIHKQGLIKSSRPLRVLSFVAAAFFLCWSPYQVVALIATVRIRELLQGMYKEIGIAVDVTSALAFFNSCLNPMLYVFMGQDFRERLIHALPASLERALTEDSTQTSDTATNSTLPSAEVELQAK
Experiment: FPR1 cyclic adenosine monophosphate (cAMP) assay
Settings: CHO cells overexpressing human FPR1; forskolin 10 μM; inhibition of cAMP production; HTRF; read-out: hFPR1 cAMP2 EC50
pEC50: −log10 of the molar value.
metric: pEC50

1) COc1cc(F)c(-c2c(NC(=O)c3ccc(OC(F)F)cc3)c(=O)n(-c3ccc(OCCO)cn3)n2C)c(F)c1 = 5.44
2) COC(=O)c1cc(Cl)cc(-n2c(=O)c(NC(=O)c3ccc(OC(F)F)cc3)c(-c3c(F)cc(OC)cc3F)n2C)c1 = 5.22
3) COc1cc(F)c(-c2c(NC(=O)c3ccc(OC(F)F)cc3)c(=O)n(-c3nc(N4CCN5CCC[C@@H]5C4)ccc3C(F)(F)F)n2C)c(F)c1 = 5.64
4) CCc1ccc(OCC(C)(C)O)nc1-n1c(=O)c(NC(=O)c2ccc(OC(F)F)cc2)c(-c2c(F)cc(OC)cc2F)n1C = 5.66
5) COc1cc(F)c(-c2c(NC(=O)c3ccc(OC(F)F)cc3)c(=O)n(-c3cccc(C4(O)CCC4)n3)n2C)c(F)c1 = 6.11

* * *

Target: human FPR1 (Homo sapiens, UniProt P21462)
Test: FPR1 cyclic adenosine monophosphate (cAMP) assay
Conditions: CHO cells overexpressing human FPR1; forskolin 10 μM; inhibition of cAMP production; HTRF; read-out: hFPR1 cAMP2 EC50
pEC50: −log10 of the molar value.
metric: pEC50

1) COc1cc(F)c(-c2c(NC(=O)c3ccc(OC(F)F)cc3)c(=O)n(-c3cc(Cl)cc(OC(F)(F)F)c3)n2C)c(F)c1 [Example 123] = < 5.00
2) COc1cc(F)c(-c2c(NC(=O)c3ccc(OC(F)(F)F)cc3)c(=O)n(-c3ccc(F)cc3)n2C)c(F)c1 [Example 10] = 6.04
3) COc1cc(F)c(-c2c(NC(=O)c3ccc(OC(F)F)cc3)c(=O)n(-c3cc(F)cc(OC(C)C)c3)n2C)c(F)c1 [Example 125] = 5.70
4) COc1cc(F)c(-c2c(NC(=O)c3ccc(OC(F)F)cc3)c(=O)n(-c3nc(NCC(=O)N(C)C)ccc3C(F)(F)F)n2C)c(F)c1 [Example 252] = < 5.00
5) COc1cc(F)c(-c2c(NC(=O)c3ccc(OC(F)F)cc3)c(=O)n(-c3nc(N4CC5(CC(O)C5)C4)ccc3C(F)(F)F)n2C)c(F)c1 [Example 308] = < 5.00
6) COc1cc(F)c(-c2c(NC(=O)c3ccc(OC(F)F)cc3)c(=O)n(-c3cccc(OC(F)F)n3)n2C)c(F)c1 [Example 168] = < 5.00

* * *

Molecular target: human FPR2 (Homo sapiens)
Sequence (P25090 whole entry): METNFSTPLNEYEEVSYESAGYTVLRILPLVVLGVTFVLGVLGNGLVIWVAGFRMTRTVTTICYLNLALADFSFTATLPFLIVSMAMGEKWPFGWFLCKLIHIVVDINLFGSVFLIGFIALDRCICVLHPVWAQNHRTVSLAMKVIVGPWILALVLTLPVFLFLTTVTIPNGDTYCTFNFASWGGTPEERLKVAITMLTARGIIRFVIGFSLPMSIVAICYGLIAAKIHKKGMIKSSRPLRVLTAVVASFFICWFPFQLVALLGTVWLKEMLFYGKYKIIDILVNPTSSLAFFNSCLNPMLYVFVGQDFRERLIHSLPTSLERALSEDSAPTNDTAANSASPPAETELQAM
Assay: FPR2 cyclic adenosine monophosphate (cAMP) assay
Format: cell-based
Conditions: CHO cells overexpressing human FPR2; forskolin 5 μM; inhibition of cAMP production; HTRF; read-out: hFPR2 cAMP2 EC50
Method: N-formyl peptide receptors (FPRs) are a family of chemo attractant receptors that facilitate leukocyte response during inflammation. FPRs belong to the seven-transmembrane G protein-coupled receptor superfamily and are linked to inhibitory G-proteins (Gi). […] FPR2 and FPR1 Cyclic Adenosine Monophosphate (cAMP) Assays. […] The level of intracellular cAMP was determined using the HTRF HiRange cAMP assay reagent kit (Cisbio) according to manufacturer's instruction. […]
metric: log10 EC50 (log10 of the value in nM)

1) COc1cc(F)c(-c2c(NC(=O)c3ccc(OC(F)F)cc3)c(=O)n(C3CC3)n2C)c(F)c1 = 1.34
2) COc1cc(F)c(-c2c(NC(=O)c3ccc(OC(F)F)cc3)c(=O)n(-c3nc(C(F)(F)F)ccc3C#N)n2C)c(F)c1 = 0.60
3) COc1cc(OCC(O)C(F)(F)F)nc(-n2c(=O)c(NC(=O)c3ccc(OC(F)F)cc3)c(-c3c(F)cc(OC)cc3F)n2C)c1 (centres unmarked) [Example 383] = 0.00
4) COc1cc(F)c(-c2c(NC(=O)c3ccc(OC(F)F)cc3)c(=O)n(-c3cc(CO)cc(OCCO)n3)n2C)c(F)c1 = 1.38
5) CCc1cccnc1-n1c(=O)c(NC(=O)c2ccc(OC(F)F)cc2)c(-c2c(F)cc(OC)cc2F)n1C = 1.30
6) COc1cc(F)c(-c2c(NC(=O)c3ccc(OC(F)F)cc3)c(=O)n(-c3cc(C#N)ccc3C#N)n2C)c(F)c1 = 1.36
7) COc1cc(F)c(-c2c(NC(=O)c3ccc(OC(F)F)cc3)c(=O)n(-c3nc(NCC4(O)CC4)ccc3C(F)(F)F)n2C)c(F)c1 = 0.00
8) COCCNc1ccc(C(F)(F)F)c(-n2c(=O)c(NC(=O)c3ccc(OC(F)F)cc3)c(-c3c(F)cc(OC)cc3F)n2C)n1 = 0.00
9) COc1cc(F)c(-c2c(NC(=O)c3ccc(OC(F)F)cc3)c(=O)n(-c3cc(C)cc(OCC4(C)COC4)n3)n2C)c(F)c1 = 0.30
10) COc1cc(F)c(-c2c(NC(=O)c3ccc(OC(F)F)cc3)c(=O)n(-c3nc(NC[C@H](C)O)ccc3C(F)(F)F)n2C)c(F)c1 = 0.00
11) COc1cc(F)c(-c2c(NC(=O)c3ccc(OC(F)(F)F)cc3)c(=O)n(-c3cc(C(F)(F)F)ccn3)n2C)c(F)c1 = 0.85
12) COc1cc(F)c(-c2c(NC(=O)c3ccc(-n4cccn4)cc3)c(=O)n(-c3ccccc3)n2C)c(F)c1 = 2.18
13) COc1cc(F)c(-c2c(NC(=O)c3ccc(OC(F)F)cc3)c(=O)n(-c3nc(OC)ccc3Cl)n2C)c(F)c1 = 1.08
14) Cn1c(-c2ccc(OC(F)F)cc2)c(NC(=O)c2ccc(OC(F)F)cc2)c(=O)n1-c1nc(Cl)ccc1C(F)(F)F = 1.15
15) COc1cc(F)c(-c2c(NC(=O)c3ccc(OC(F)F)cc3)c(=O)n(-c3ncccc3Cl)n2C)c(F)c1 = 1.20
16) COc1cc(F)c(-c2c(NC(=O)c3ccc(OC(F)F)cc3)c(=O)n(-c3ncccc3OC(F)F)n2C)c(F)c1 = 1.11
17) COc1cc(F)c(-c2c(NC(=O)c3ccc(OC(F)F)cc3)c(=O)n(-c3nc(N4CCN(S(C)(=O)=O)CC4)ccc3C(F)(F)F)n2C)c(F)c1 = 0.30
18) COc1cc(C2CC2)nc(-n2c(=O)c(NC(=O)c3ccc(OC(F)F)cc3)c(-c3c(F)cc(OC)cc3F)n2C)c1 = 0.30
19) COc1cc(F)c(-c2c(NC(=O)c3ccc(OC(F)F)cc3)c(=O)n(-c3cccc(Cl)c3C)n2C)c(F)c1 = 1.28
20) COc1cc(F)c(-c2c(NC(=O)c3ccc(OC(F)F)cc3)c(=O)n(-c3ccccc3)n2C)c(F)c1 = 1.08
21) COCc1ccc(C(F)(F)F)c(-n2c(=O)c(NC(=O)c3ccc(OC(F)F)cc3)c(-c3c(F)cc(OC)cc3F)n2C)n1 = 0.95
22) COCCOc1ccc(C(F)(F)F)c(-n2c(=O)c(NC(=O)c3ccc(OC(F)F)cc3)c(-c3c(F)cc(OC)cc3F)n2C)n1 = 0.30
23) COc1cc(F)c(-c2c(NC(=O)c3ccc(OC(F)F)cc3)c(=O)n(-c3nccc(N4CCN(C)CC4)c3C(F)(F)F)n2C)c(F)c1 = 1.18
24) COc1cc(N2CCC(F)(F)C2)nc(-n2c(=O)c(NC(=O)c3ccc(OC(F)F)cc3)c(-c3c(F)cc(OC)cc3F)n2C)c1 = 0.60
25) COc1ccc(-c2c(NC(=O)c3ccc(OC(F)F)cc3)c(=O)n(-c3nc(N4CCC(C)(O)CC4)ccc3C(F)(F)F)n2C)c(F)c1 = 0.00
26) COc1cc(F)c(-c2c(NC(=O)c3ccc(OC(F)F)cc3)c(=O)n(-c3cccc(OC)c3C#N)n2C)c(F)c1 = 0.90

* * *

Biological target: human FPR1 (Homo sapiens, UniProt P21462)
Assay: FPR1 cyclic adenosine monophosphate (cAMP) assay
Conditions: CHO cells overexpressing human FPR1; forskolin 10 μM; inhibition of cAMP production; HTRF; read-out: hFPR1 cAMP2 EC50
pEC50: −log10 of the molar value.
metric: pEC50

1) COc1cc(F)c(-c2c(NC(=O)c3ccc(OC(F)F)cc3)c(=O)n(-c3cc(OC)c(C)cn3)n2C)c(F)c1 = 6.21
2) COc1cc(F)c(-c2c(NC(=O)c3ccc(OC(F)F)cc3)c(=O)n(-c3cccc(C4CC4)n3)n2C)c(F)c1 = 5.55
3) COc1cc(F)c(-c2c(NC(=O)c3ccc(OC(F)(F)F)cc3)c(=O)n(-c3cc(Cl)ccn3)n2C)c(F)c1 = 5.38
4) COc1cc(O)nc(-n2c(=O)c(NC(=O)c3ccc(OC(F)F)cc3)c(-c3c(F)cc(OC)cc3F)n2C)c1 = 5.80
5) Cn1c(-c2ccc(OC(F)(F)F)cc2)c(NC(=O)c2ccc(OC(F)F)cc2)c(=O)n1-c1ncccc1C(F)(F)F = 6.96
6) COc1cc(F)c(-c2c(NC(=O)c3ccc(OC(F)F)cc3)c(=O)n(-c3nc(OCC(C)(C)O)ccc3Cl)n2C)c(F)c1 = 6.36
7) COc1cc(F)c(-c2c(NC(=O)c3ccc(OC(F)F)cc3)c(=O)n(-c3nc(N4CCC(C)(O)C4)ccc3C(F)(F)F)n2C)c(F)c1 (centres unmarked) [Example 282] = 5.68
8) COc1cc(F)c(-c2c(NC(=O)c3ccc(OC(F)F)cc3)c(=O)n(-c3ncccc3C#N)n2C)c(F)c1 = 5.02
9) COc1cc(F)c(-c2c(NC(=O)c3ccc(OC(F)F)cc3)c(=O)n(-c3cc(C#N)cc(C)n3)n2C)c(F)c1 = 5.80
10) COc1cc(F)c(-c2c(NC(=O)c3ccc(OC(F)F)cc3)c(=O)n(-c3cc(OC(C)C)cc(OCC(C)(C)O)n3)n2C)c(F)c1 = 6.33
11) COc1cc(F)c(-c2c(NC(=O)c3ccc(OC(F)F)cc3)c(=O)n(-c3cc(OC4CCOC4)cc(C)n3)n2C)c(F)c1 (centres unmarked) [Example 320] = 6.00
12) COc1cc(F)c(-c2c(NC(=O)c3ccc(OC(F)F)cc3)c(=O)n(-c3cc(C#N)ccc3C#N)n2C)c(F)c1 = 6.52
13) COc1cc(F)c(-c2c(NC(=O)c3ccc(OC(F)F)cc3)c(=O)n(-c3nc(C(F)(F)F)ccc3NCCO)n2C)c(F)c1 = 6.49
14) Cn1c(-c2ccc(C(F)(F)F)cc2)c(NC(=O)c2ccc(OC(F)F)cc2)c(=O)n1-c1ncccc1C(F)(F)F = 6.85
15) COc1ccc(-c2c(NC(=O)c3ccc(OC(F)F)cc3)c(=O)n(-c3nc(Cl)ccc3C(F)(F)F)n2C)c(F)c1 = 5.82
16) COc1cc(F)c(-c2c(NC(=O)c3ccc(OC(F)F)cc3)c(=O)n(-c3cccc(OCCO)n3)n2C)c(F)c1 = 5.89
17) [2H]C([2H])([2H])Oc1cc(F)c(-c2c(NC(=O)c3ccc(OC(F)(F)F)cc3)c(=O)n(-c3cccc(C(C)(C)O)n3)n2C)c(F)c1 = 6.41
